# ASSAY_COMMENT: Toxicity in sheep RBC assessed as induction of hemolysis
# Type: cell-based, Ovis aries
# TEST_CONTEXT: erythrocyte

- GIVEN_SMILES: "CCCCCCCCCCNC(=O)Cn1cc(CCCc2c[nH]c(N)n2)nn1.Cl"
  MODIFIER: "="
  Activity / µM: 487
- GIVEN_SMILES: "Cl.Nc1nc(CCCc2cn(CC(=O)NCc3ccccc3)nn2)c[nH]1"
  MODIFIER: ">"
  Activity / µM: 800
- GIVEN_SMILES: "CCCCCCCCNC(=O)Cn1cc(CCCCCc2c[nH]c(N)n2)nn1.Cl"
  MODIFIER: "="
  Activity / µM: 675
- GIVEN_SMILES: "COc1ccc(CCNC(=O)Cn2cc(CCCc3c[nH]c(N)n3)nn2)cc1.Cl"
  MODIFIER: ">"
  Activity / µM: 800
